Cited source: patent US20090069565A1

Kindly supply the reported Ki values for the records listed here.
Target: human factor Xa (Homo sapiens)
Test: Factor Xa assay (chromogenic, substrate S-2765)
Type: biochemical
Settings: read-out: Ki(FXa)
One number for each entry, in nM.

{"columns": ["compound_structure", "unit_text", "Ki"],
 "data": [
  ["Cc1cccc2cc(C(=O)N(CC(=O)O)C3CCN(C(C)C)CC3)n(Cc3cc(-c4ccc(Cl)s4)on3)c12", "nM", 5],
  ["O=C(Cn1c(C(=O)NC2CCN(C3CC3)CC2)cc2ccccc21)Nc1ccc(Cl)cc1", "nM", 106],
  ["COc1cc(OC)c2cc(C(=O)NC3CCN(C(C)C)CC3)n(Cc3cc(-c4ccc(Cl)s4)on3)c2c1", "nM", 3]
]}

Returns the measured Ki for the input molecule. Input: "O=C(NC1CCN(c2ccnc(Cl)n2)CC1)c1cc2ccccc2n1Cc1cc(-c2ccc(Cl)s2)on1"
199

---

Biological target: human factor Xa (Homo sapiens, UniProt P00742)
Sequence (P00742 235-488 limits assumed): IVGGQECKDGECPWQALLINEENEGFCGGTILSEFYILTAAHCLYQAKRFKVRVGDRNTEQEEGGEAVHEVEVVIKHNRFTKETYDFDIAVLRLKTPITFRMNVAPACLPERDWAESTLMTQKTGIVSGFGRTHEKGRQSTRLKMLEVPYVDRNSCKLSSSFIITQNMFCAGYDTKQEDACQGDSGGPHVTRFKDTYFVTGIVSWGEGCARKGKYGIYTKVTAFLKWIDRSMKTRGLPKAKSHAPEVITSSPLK
Sequence (P00742 41-179 partner limits assumed): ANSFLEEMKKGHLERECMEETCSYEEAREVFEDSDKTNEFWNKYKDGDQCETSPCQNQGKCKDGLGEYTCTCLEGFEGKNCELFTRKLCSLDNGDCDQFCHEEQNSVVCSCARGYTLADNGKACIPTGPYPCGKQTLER
Test: Factor Xa assay (chromogenic, substrate S-2765);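 further: purified enzyme preincubated with inhibitor for 10 min before substrate addition, final reaction volume 100 µl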
Assay type: biochemical
Conditions: read-out: Ki(FXa)
pKi: −log10 of the molar value.
I would appreciate it if you labelled entries true when pKi is 8 or higher, otherwise false.

{"columns": ["compound_structure", "discrete_label"],
 "data": [
  ["CCOC(=O)CN(C(=O)c1cc2cc(Cl)cc(Cl)c2n1Cc1cc(-c2ccc(Cl)s2)on1)C1CCN(C(C)C)CC1", "false"],
  ["CC(C)N1CCC(NC(=O)c2c(-c3ccccc3)c3cc(Cl)ccc3n2Cc2cc(-c3ccc(Cl)s3)on2)CC1", "false"],
  ["CC(C)N1CCC(NC(=O)c2cc3ccccc3n2Cc2ccccc2Cl)CC1", "false"],
  ["O=C(Cn1c(C(=O)NC2CCN(c3ccncc3)CC2)cc2ccccc21)Nc1ccc(Cl)cc1", "false"]
]}

Turning now to a further record.
Exam item: decide whether the reported pKi for "CCN1CCC(NC(=O)c2cc3cccc(C)c3n2Cc2cc(-c3ccc(Cl)s3)on2)CC1" is at least 8.
true

---

Biological target: UniProt P00742
Test: Factor Xa assay (chromogenic, substrate S-2765)
Type: biochemical
Conditions: read-out: Ki(FXa)
assay_endpoint: Ki (nM)
Numbers only, in nM.

Sample answers from the record:
{"columns": ["compound_structure", "assayed_target", "assay_endpoint", "reported"],
 "data": [
  ["COc1ccc(C#N)c2c1c(C#N)c(C(=O)NC1CCN(C(C)C)CC1)n2Cc1cc(-c2ccc(Cl)s2)on1", "UniProt P00742", "Ki", 1],
  ["CCc1ccc2c(c1)cc(C(=O)NC1CCN(C(C)C)CC1)n2Cc1cc(-c2ccc(Cl)s2)on1", "UniProt P00742", "Ki", 217],
  ["CC(C)N1CCC(NC(=O)c2cc3cc(C(N)=O)ccc3n2Cc2cc(-c3ccc(Cl)s3)on2)CC1", "UniProt P00742", "Ki", 24]
]}

Returns the measured Ki for the input molecule. Input: "N#Cc1c(C(=O)NC2CCN(c3ccncc3)CC2)n(Cc2cc(-c3ccc(Cl)s3)on2)c2ccccc12"
12

---

Kindly supply the reported pKi values for the records listed here.
Target: human factor Xa (Homo sapiens)
Experiment: Factor Xa assay (chromogenic, substrate S-2765)
Format: biochemical
Conditions: read-out: Ki(FXa)
Answers are plain numbers, as −log10 of the molar value.

Sample answers from the record:
{"columns": ["compound", "pKi"],
 "data": [
  ["CC(C)N1CCC(NC(=O)c2cc3ccccc3n2Cc2ccc(OC(F)(F)F)cc2)CC1 [Example 146]", 6.36],
  ["CC(C)OC(=O)c1ccc2c(c1)cc(C(=O)NC1CCN(C(C)C)CC1)n2CC(=O)Nc1ccc(Cl)cc1 [Example 243]", 8.00],
  ["COc1cccc(Cn2c(C(=O)NCC3CCN(c4ccncc4)CC3)cc3ccccc32)c1 [Example 55]", 5.77]
]}

Go through the list and state pKi for each entry.
1. O=C(c1cc2ccccc2n1Cc1cc(-c2ccc(Cl)s2)on1)N1CCC(N2CCCC2)CC1 [Example 38]
2. CC(C)N1CCC(NC(=O)c2cc3ccccc3n2CC(=O)Nc2ccc(Cl)cc2F)CC1 [Example 250]
3. COc1cccc(Cn2c(C(=O)NC3CCN(C(C)C)CC3)cc3c(OC)cccc32)c1 [Example 66]
4. CC(C)N1CCC(NC(=O)c2c(-c3ccccc3)c3cc([N+](=O)[O-])ccc3n2Cc2cc(-c3ccc(Cl)s3)on2)CC1 [Example 24]
5. CC(C)N1CCC(NC(=O)c2cc3cc(OC(F)(F)F)ccc3n2Cc2cc(-c3ccc(Cl)s3)on2)CC1 [Example 12]

6.15
7.51
7.37
6.88
6.94
